System: Fibroblast
ASSAY_METHOD_TEXT: Multiplex assay against human fibroblast
Type: toxicity, cell-based
RECORDED_CONDITIONS: 48 h, 1 µM, compound concentration 1 uM, replicate 1
MEASUREMENT_TYPE: Population Membrane Permeable-Phenotype (%)

COMPOUND: O=C(NCC(=O)N1CC[C@H](N[C@H]2CC[C@@](O)(c3ccc(-c4ncccn4)cn3)CC2)C1)c1cccc(C(F)(F)F)c1
TARGET_ENTITY: Fibroblast
UNIT_STRING: %
MEAS_VALUE: 2
--
COMPOUND: Cc1ccccc1C(=O)Nc1ccc(C(=O)N2CCCC(N(C)C)c3ccccc32)cc1.Cl (centres undefined)
TARGET_ENTITY: Fibroblast
UNIT_STRING: %
MEAS_VALUE: 0
--
COMPOUND: N#Cc1c(N)nc(SCc2csc(-c3ccc(Cl)cc3)n2)c(C#N)c1-c1ccc(OCCO)cc1
TARGET_ENTITY: Fibroblast
UNIT_STRING: %
MEAS_VALUE: 0
--
COMPOUND: CN1CCN2c3ncccc3Cc3ccccc3C2C1 (centres undefined)
TARGET_ENTITY: Fibroblast
UNIT_STRING: %
MEAS_VALUE: 0

* * *

Consider the following molecules and their measured Population Normal (%) readings.
System: Fibroblast
ASSAY_METHOD_TEXT: Multiplex assay against human fibroblast
Format: toxicity, cell-based
RECORDED_CONDITIONS: 12 h, 10 µM, compound concentration 10 uM, replicate 2

MOLECULE: CC(C)(C)c1ccc(S(=O)(=O)Nc2ccc(Cl)cc2C(=O)c2cc[n+]([O-])cc2)cc1 [VERCIRNON]
Population Normal (%): 94
//
MOLECULE: C[C@@H]1C[C@H]2[C@@H]3CCC4=CC(=O)C=C[C@]4(C)[C@@]3(F)[C@@H](O)C[C@]2(C)[C@@]1(O)C(=O)CO [DEXAMETHASONE]
Population Normal (%): 93
//
MOLECULE: O=S(=O)(c1ccccc1)c1cnc2c(N3CCNCC3)cccc2c1 [INTEPIRDINE]
Population Normal (%): 93
//
MOLECULE: C[C@H](NC(=O)c1c(C(F)F)nn(C)c1Oc1cccc(C(F)(F)F)c1)c1ccc(C(=O)O)cc1 [PALUPIPRANT]
Population Normal (%): 85
//
MOLECULE: Cc1ccc(C(C)(O)c2nc3ccccc3s2)c(C)c1 (stereo not drawn)
Population Normal (%): 92
//
MOLECULE: COc1c(C)cc(NC(=O)c2nn(Cc3ccc(F)cc3)c3c2CN(C(=O)c2ccc[nH]2)C[C@]3(C)C(N)=O)cc1C
Population Normal (%): 97
//
MOLECULE: CN1CCN2c3ncccc3Cc3ccccc3C2C1 (stereo not drawn) [MIRTAZAPINE]
Population Normal (%): 93
//
MOLECULE: CN1CCN(c2nc3cc(C(F)(F)F)ccc3n3cccc23)CC1.O=C(O)/C=C\C(=O)O.O=C(O)/C=C\C(=O)O
Population Normal (%): 95

* * *

Consider the following molecules and their measured Population Fragmented Nuclei (%) readings.
Test system: HEK-293T
ASSAY_METHOD_TEXT: Multiplex assay against HEK293T
Assay type: toxicity, cell-based
RECORDED_CONDITIONS: human, 48 h, 10 µM, compound concentration 10 uM, replicate 2

MOLECULE: CCCC(CCC)C(=O)O
TARGET_ENTITY: HEK-293T
Population Fragmented Nuclei (%): 13%

MOLECULE: CCCN1CCC[C@@H]2Cc3n[nH]cc3C[C@H]21.Cl [QUINPIROLE HYDROCHLORIDE]
TARGET_ENTITY: HEK-293T
Population Fragmented Nuclei (%): 13%

MOLECULE: C[C@H](NC(=O)c1c(C(F)F)nn(C)c1Oc1cccc(C(F)(F)F)c1)c1ccc(C(=O)O)cc1
TARGET_ENTITY: HEK-293T
Population Fragmented Nuclei (%): 15%

MOLECULE: N[C@@]1(C(=O)O)CO[C@H]2[C@H](C(=O)O)[C@H]21
TARGET_ENTITY: HEK-293T
Population Fragmented Nuclei (%): 11%

MOLECULE: C[C@H]1[C@H]2CC[C@H]3[C@@H]4CC=C5C[C@@H](N(C)C)CC[C@]5(C)[C@H]4CC[C@]23CN1C
TARGET_ENTITY: HEK-293T
Population Fragmented Nuclei (%): 10%

MOLECULE: Cc1ccccc1C(=O)Nc1ccc(C(=O)N2CCCC(N(C)C)c3ccccc32)cc1.Cl (centres undefined)
TARGET_ENTITY: HEK-293T
Population Fragmented Nuclei (%): 9%

MOLECULE: C[C@@H]1C[C@H]2[C@@H]3CCC4=CC(=O)C=C[C@]4(C)[C@@]3(F)[C@@H](O)C[C@]2(C)[C@@]1(O)C(=O)CO
TARGET_ENTITY: HEK-293T
Population Fragmented Nuclei (%): 16%

MOLECULE: CN(C)CCCc1cc(C(=O)Nc2ccc(-c3ccncc3)cc2)ccc1O.Cl.Cl
TARGET_ENTITY: HEK-293T
Population Fragmented Nuclei (%): 15%

MOLECULE: Oc1c(CN2CCN(c3ccccn3)CC2)cc(Cl)c2cccnc12
TARGET_ENTITY: HEK-293T
Population Fragmented Nuclei (%): 28%

Source of measurements: ChEMBL document CHEMBL5058577
